Experiment: Cytotoxicity against African green monkey Vero cells after 3 days by resazurin dye based fluorescence assay
Format: cell-based
Settings: chlorocebus sabaeus
// NB: equality with 70 µM counts as 0 (no); only CC50 at 72 h strictly below is 1 (yes)

>  <chemical_smiles>
CCOC(=O)C[C@H]([C@H]1O[C@@H]2OC(C)(C)O[C@@H]2[C@H]1OCc1ccccc1)n1cnc2c(NCc3ccccc3)ncnc21

>  <label>
1 (yes)

$$$$
>  <chemical_smiles>
CC1(C)O[C@H]2O[C@H]([C@H](CC(=O)O)n3cnc4c(N)ncnc43)[C@H](Oc3ccccc3N)[C@H]2O1

>  <label>
1 (yes)

$$$$
>  <chemical_smiles>
CC1(C)O[C@H]2O[C@H]([C@@H](CCO)n3cnc4c(N)ncnc43)[C@H](Oc3ccccc3[N+](=O)[O-])[C@H]2O1

>  <label>
1 (yes)

$$$$
>  <chemical_smiles>
CCOC(=O)C[C@@H]([C@H]1O[C@@H]2OC(C)(C)O[C@@H]2[C@H]1Oc1ccccc1N)n1cnc2c(N)ncnc21

>  <label>
0 (no)

$$$$
>  <chemical_smiles>
CCOC(=O)C[C@H]([C@H]1O[C@@H]2OC(C)(C)O[C@@H]2[C@H]1Oc1ccccc1[N+](=O)[O-])n1cnc2c(N)ncnc21

>  <label>
0 (no)

$$$$

---

Test: Cytotoxicity against African green monkey Vero cells after 3 days by resazurin dye based fluorescence assay
Format: cell-based
Conditions: chlorocebus sabaeus
// NB: equality with 70 µM counts as NO; only CC50 at 72 h strictly below is YES

>  <chemical_smiles>
COC(=O)C[C@H]([C@H]1O[C@@H]2OC(C)(C)O[C@@H]2[C@H]1OCc1ccccc1)n1cnc2c(N)ncnc21

>  <label>
NO

$$$$
>  <chemical_smiles>
CCOC(=O)C[C@@H]([C@H]1O[C@@H]2OC(C)(C)O[C@@H]2[C@H]1OCc1ccccc1)n1cnc2c(NCc3ccccc3)ncnc21

>  <label>
YES

$$$$
>  <chemical_smiles>
CC1(C)O[C@H]2O[C@H]([C@H](CCO)n3cnc4c(N)ncnc43)[C@H](OCc3ccccc3)[C@H]2O1

>  <label>
NO

$$$$
>  <chemical_smiles>
CC1(C)O[C@H]2O[C@H]([C@H](CCO)n3cnc4c(NCc5ccccc5)ncnc43)[C@H](OCc3ccccc3)[C@H]2O1

>  <label>
YES

$$$$
>  <chemical_smiles>
CCCCCCCCCCCCNc1ncnc2c1ncn2[C@H](CC(=O)OCC)[C@H]1O[C@@H]2OC(C)(C)O[C@@H]2[C@H]1OCc1ccccc1

>  <label>
YES

$$$$
>  <chemical_smiles>
CCOC(=O)C[C@@H]([C@H]1O[C@@H]2OC(C)(C)O[C@@H]2[C@H]1Oc1ccccc1[N+](=O)[O-])n1cnc2c(N)ncnc21

>  <label>
NO

$$$$
>  <chemical_smiles>
CC1(C)O[C@H]2O[C@H]([C@H](CCO)n3cnc4c(N)ncnc43)[C@H](Oc3ccccc3[N+](=O)[O-])[C@H]2O1

>  <label>
NO

$$$$
>  <chemical_smiles>
CC1(C)O[C@H]2O[C@H]([C@@H](CCO)n3cnc4c(NCc5ccccc5)ncnc43)[C@H](OCc3ccccc3)[C@H]2O1

>  <label>
NO

$$$$

---

Test: Selectivity index, ratio of CC50 for African green monkey Vero cells to IC50 for chloroquine-sensitive Plasmodium falciparum 3D7 asynchronous cultures infected in human erythrocytes
Type: toxicity, cell-based
Conditions: read-out: Ratio CC50/IC50
The entries below are paired with their reported selectivity ratio.

>  <chemical_smiles>
CCOC(=O)C[C@H]([C@H]1O[C@@H]2OC(C)(C)O[C@@H]2[C@H]1OCc1ccccc1)n1cnc2c(NCc3ccccc3)ncnc21

>  <selectivity ratio>
14.8

$$$$
>  <chemical_smiles>
CCCCCCCCCCCCNc1ncnc2c1ncn2[C@@H](CC(=O)OCC)[C@H]1O[C@@H]2OC(C)(C)O[C@@H]2[C@H]1OCc1ccccc1

>  <selectivity ratio>
92.6

$$$$
>  <chemical_smiles>
CCCCCCCCCCCCNc1ncnc2c1ncn2[C@H](CC(=O)OCC)[C@H]1O[C@@H]2OC(C)(C)O[C@@H]2[C@H]1OCc1ccccc1

>  <selectivity ratio>
44.5

$$$$
>  <chemical_smiles>
COC(=O)C[C@H]([C@H]1O[C@@H]2OC(C)(C)O[C@@H]2[C@H]1OCc1ccccc1)n1cnc2c(N)ncnc21

>  <selectivity ratio>
20.9

$$$$
>  <chemical_smiles>
COC(=O)C[C@@H]([C@H]1O[C@@H]2OC(C)(C)O[C@@H]2[C@H]1OCc1ccccc1)n1cnc2c(N)ncnc21

>  <selectivity ratio>
15.4

$$$$
>  <chemical_smiles>
CCOC(=O)C[C@@H]([C@H]1O[C@@H]2OC(C)(C)O[C@@H]2[C@H]1OCc1ccccc1)n1cnc2c(NCc3ccccc3)ncnc21

>  <selectivity ratio>
35.7

$$$$
